Biological target: UniProt P15917
Sequence (P15917 34-809 limits assumed): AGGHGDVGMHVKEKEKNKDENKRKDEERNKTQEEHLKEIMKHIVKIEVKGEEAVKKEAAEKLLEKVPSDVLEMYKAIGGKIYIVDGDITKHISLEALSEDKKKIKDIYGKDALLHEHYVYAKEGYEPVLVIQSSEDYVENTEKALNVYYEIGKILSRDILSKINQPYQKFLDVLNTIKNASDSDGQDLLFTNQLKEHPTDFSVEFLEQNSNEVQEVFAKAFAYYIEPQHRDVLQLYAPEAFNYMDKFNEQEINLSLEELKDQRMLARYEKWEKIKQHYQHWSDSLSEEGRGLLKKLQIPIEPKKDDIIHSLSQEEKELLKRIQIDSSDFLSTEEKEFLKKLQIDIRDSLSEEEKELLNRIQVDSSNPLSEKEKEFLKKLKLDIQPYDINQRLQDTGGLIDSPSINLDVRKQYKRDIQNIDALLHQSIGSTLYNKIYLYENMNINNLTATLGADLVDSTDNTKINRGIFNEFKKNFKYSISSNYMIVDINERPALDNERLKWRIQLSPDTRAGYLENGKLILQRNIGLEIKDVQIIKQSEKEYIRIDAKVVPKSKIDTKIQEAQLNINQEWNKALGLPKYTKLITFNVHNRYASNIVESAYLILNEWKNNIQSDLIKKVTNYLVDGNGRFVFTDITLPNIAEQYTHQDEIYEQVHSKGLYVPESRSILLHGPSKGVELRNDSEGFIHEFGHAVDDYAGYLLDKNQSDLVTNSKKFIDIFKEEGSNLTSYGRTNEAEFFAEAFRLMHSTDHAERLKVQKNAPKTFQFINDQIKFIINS
endpoint: IC50 (µM)
Give the number; µM is assumed, so skip it.

Here is how some molecules turned out for IC50.
[[record]]
molecule = "CNC(=O)[C@H](Cc1c[nH]c2ccccc12)NC(=O)[C@@H](CC(=O)NO)CC(C)C [GM6001/M364205, ilomastat]"
numeric_result = 10.2

[[record]]
molecule = "CCN(Cc1ccccc1)Cc1cc(Br)ccc1O [compound 5428736]"
numeric_result = 73.9

[[record]]
molecule = "CCN(Cc1ccccc1)Cc1cc(I)cc(I)c1O [compound 5426202]"
numeric_result = 49.5


Query molecule follows.
May I ask what IC50 has been recorded for CCN(Cc1ccccc1)Cc1cc(Cl)ccc1O [compound 5421384] ?
67.5
